Reported DC50 by item:
Biological target: SW1573 HiBiT-KRASG12C (Homo sapiens, UniProt P01116, G12C)
Construct: expressed in transfected cells
Sequence (P01116 1-188 isoform P01116-2 G12C): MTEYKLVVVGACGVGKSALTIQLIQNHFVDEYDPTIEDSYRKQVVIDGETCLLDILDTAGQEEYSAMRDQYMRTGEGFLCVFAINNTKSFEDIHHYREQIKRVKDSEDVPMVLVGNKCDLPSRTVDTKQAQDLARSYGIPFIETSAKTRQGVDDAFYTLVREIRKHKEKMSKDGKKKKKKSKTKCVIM
Assay: HiBiT degradation assay (G12C), SW1573 HiBiT-KRASG12C cells;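 also: Letter grades: C is 1000 to 3000 nM and D is above 3000 nM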
Type: cell-based
Conditions: 24 hours treatment, HiBiT luminescence

As a guide, the following entries are already answered.
compound | attributeMeasured | measurement
C#Cc1c(F)ccc2cc(O)cc(-c3ncc4c(N5CC6CCC(C5)N6)nc(OCCN5CCC(COc6cc([C@H](C(=O)N7C[C@H](O)C[C@H]7C(=O)N[C@@H](C)c7ccc(-c8scnc8C)cc7)C(C)C)on6)CC5)nc4c3F)c12 [Compound 39] | DC50 | 1 to 3 µM
CCc1cccc2cc(O)cc(-c3ncc4c(N5CC6CCC(C5)N6)nc(OCCN5CCC(COCC(=O)N[C@H](C(=O)N6C[C@@H](O)C[C@H]6C(=O)N[C@@H](C)c6ccc(-c7scnc7C)cc6)C(C)(C)C)CC5)nc4c3F)c12 [Compound 10] | DC50 | > 3 µM
Cc1ncsc1-c1ccc([C@H](C)NC(=O)[C@@H]2C[C@@H](O)CN2C(=O)[C@@H](NC(=O)COCC2CCN(CCOc3nc(N4CC5CCC(C4)N5)c4cnc(-c5cc(O)cc6ccccc56)c(F)c4n3)CC2)C(C)(C)C)cc1 [Compound 23] | DC50 | > 3 µM

--- query ---
## Input Which DC50 value belongs to Cc1ncsc1-c1ccc([C@H](C)NC(=O)[C@@H]2C[C@@H](O)CN2C(=O)[C@@H](c2cc(OCC3CCN(CCOc4nc(N5CC6CCC(C5)N6)c5cnc(-c6cc(O)cc(Cl)c6C(C)C)c(F)c5n4)CC3)no2)C(C)C)cc1 [Compound 41] ?
## Output > 3 µM
